Biological target: tRNA (guanine-N(1)-)-methyltransferase (Pseudomonas aeruginosa (strain ATCC 15692 / DSM 22644 / CIP 104116 / JCM14847 / LMG 12228 / 1C / PRS 101 / PAO1))
Sequence (Q9HXQ1 whole entry): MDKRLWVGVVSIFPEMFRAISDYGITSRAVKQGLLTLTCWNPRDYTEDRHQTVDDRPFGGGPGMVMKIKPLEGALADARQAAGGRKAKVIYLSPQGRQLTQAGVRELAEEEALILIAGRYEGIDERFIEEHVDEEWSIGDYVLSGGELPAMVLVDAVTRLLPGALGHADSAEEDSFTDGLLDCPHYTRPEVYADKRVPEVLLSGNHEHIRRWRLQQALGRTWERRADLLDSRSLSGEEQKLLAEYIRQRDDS
Experiment: Inhibition of Pseudomonas aeruginosa tRNA (guanine(37)-N1)-methyltransferase (Leu5 to Asp25 residues) expressed in Escherichia coli BL21 Rosetta (DE3) assessed as reduction in S-adenosyl-L-homocysteine production preincubated for 15 mins followed by 4.5 uM of tRNALeu(CAG) substrate and SAM addition and measured after 45 mins by MTase-Glo assay
Give measured pIC50 for each item. Keep answers brief.
Keep in mind that pIC50 stands for -log10 of concentration in molar terms.

Dear colleague, I am looking for the recorded pIC50 of the following compound: CCCCCCCCNCc1ccc(CNC(=O)c2csc3nc[nH]c(=O)c23)cc1
7.22

// same read-out, input: NC1CCN(Cc2ccc(CNC(=O)c3csc4nc[nH]c(=O)c34)cc2)CC1
6.48

###

Molecular target: tRNA (guanine-N(1)-)-methyltransferase (Pseudomonas aeruginosa (strain ATCC 15692 / DSM 22644 / CIP 104116 / JCM14847 / LMG 12228 / 1C / PRS 101 / PAO1), UniProt Q9HXQ1)
Sequence (Q9HXQ1 whole entry): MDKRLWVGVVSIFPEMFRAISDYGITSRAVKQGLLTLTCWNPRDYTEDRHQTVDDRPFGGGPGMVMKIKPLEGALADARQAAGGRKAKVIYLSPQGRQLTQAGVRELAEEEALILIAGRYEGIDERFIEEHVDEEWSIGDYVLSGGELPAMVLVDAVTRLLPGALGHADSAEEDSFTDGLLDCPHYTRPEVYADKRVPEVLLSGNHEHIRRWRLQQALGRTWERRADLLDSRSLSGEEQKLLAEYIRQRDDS
Experiment: Inhibition of Pseudomonas aeruginosa tRNA (guanine(37)-N1)-methyltransferase (Leu5 to Asp25 residues) expressed in Escherichia coli BL21 (DE3) Rosetta T1R cells assessed as reduction in S-adenosyl-L-homocysteine production preincubated for 15 mins followed by 1.5 uM of tRNALeu(CAG) substrate and SAM addition and measured after 45 mins by MTase-Glo assay
Task for the reader: assign each of the following compounds its reported pIC50.
Notebook: values listed as pIC50 are -log10 of the concentration (mol/L).

Which value of pIC50 has been reported for Cl.NCCCCCNCc1ccc(CNC(=O)c2csc3nc[nH]c(=O)c23)cc1 in the records?
6.96

Now the same for Cl.NCCCCCCCNCc1ccc(CNC(=O)c2csc3nc[nH]c(=O)c23)cc1
6.85

Ok, now CCCCCCCCNCc1ccc(CNC(=O)c2csc3ncnc(OCc4ccc(N=[N+]=[N-])cc4)c23)cc1
5.74

Try this compound too: O=C(NCc1ccc(CNC2CCCCC2)cc1)c1csc2nc[nH]c(=O)c12
6.10

###

Molecular target: tRNA (guanine-N(1)-)-methyltransferase (Pseudomonas aeruginosa (strain ATCC 15692 / DSM 22644 / CIP 104116 / JCM14847 / LMG 12228 / 1C / PRS 101 / PAO1)) (UniProt Q9HXQ1)
Assay: Binding affinity to Pseudomonas aeruginosa tRNA (guanine(37)-N1)-methyltransferase (Leu5 to Asp25 residues) expressed in Escherichia coli BL21 (DE3) Rosetta T1R cells assessed as thermal stabilization of protein by measuring change in melting temperature at 0.1 mM by SYPRO orange based thermal shift assay
Property Label: ΔTm

Look at this compound and give its reported ΔTm. CCCCCCOc1ncnc2scc(C(=O)NCc3ccc(CNCc4ccccc4)cc3)c12
1 to 2 °C

Entry CCCCCCCCNCc1ccc(CNC(=O)c2csc3ncnc(OC)c23)cc1 please
1 to 2 °C

CCCOc1ncnc2scc(C(=O)NCc3ccc(CNCc4ccccc4)cc3)c12 ?
1 to 2 °C

Consider next the compound CCCCCCCCNCc1ccc(CNC(=O)c2csc3ncnc(OCCC)c23)cc1 in the same way.
1 to 2 °C

Next record, please: COc1ncnc2scc(C(=O)NCc3ccc(CN4CCOCC4)cc3)c12
1 to 2 °C

// query: NC1CCN(Cc2ccc(CNC(=O)c3csc4nc[nH]c(=O)c34)cc2)CC1
4 to 29 °C

Would you mind doing CCCCCCCCNCc1ccc(CNC(=O)c2csc3ncnc(OCc4ccc(N=[N+]=[N-])cc4)c23)cc1 as well?
1 to 2 °C

Another compound to look at: CCCOc1ncnc2scc(C(=O)NCc3ccc(CN4CCOCC4)cc3)c12
1 to 2 °C

Subsequent entry: CCCCCCCCNCc1ccc(CNC(=O)c2csc3nc[nH]c(=O)c23)cc1
12 °C

Moving on to COc1ncnc2scc(C(=O)NCc3ccc(CNCc4ccccc4)cc3)c12
1 to 2 °C

Please do the same for CCCCCCCCNCc1ccc(CNC(=O)c2csc3ncnc(OCCCCCC)c23)cc1 as well.
1 to 2 °C

###

Target: tRNA (guanine-N(1)-)-methyltransferase (Mycobacterium tuberculosis (strain ATCC 25618 / H37Rv), UniProt P9WFY7)
Sequence (P9WFY7 whole entry): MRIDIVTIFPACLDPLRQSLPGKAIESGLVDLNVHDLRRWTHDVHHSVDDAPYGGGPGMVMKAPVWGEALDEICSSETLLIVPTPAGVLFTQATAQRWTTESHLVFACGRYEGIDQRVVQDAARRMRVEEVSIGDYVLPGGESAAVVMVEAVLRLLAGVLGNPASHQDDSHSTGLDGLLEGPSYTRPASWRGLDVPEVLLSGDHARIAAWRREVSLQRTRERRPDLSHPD
Experiment: Binding affinity to full length Mycobacterium tuberculosis tRNA (guanine(37)-N1)-methyltransferase expressed in Escherichia coli BL21 (DE3) by surface plasmon resonance assay
Property Label: Kd

Any idea what its Kd is? The compound is CCCCCCCCNCc1ccc(CNC(=O)c2csc3nc[nH]c(=O)c23)cc1
0.19 µM

Entry to check: NC1CCN(Cc2ccc(CNC(=O)c3csc4nc[nH]c(=O)c34)cc2)CC1
10.4 µM

Same question, Nc1ncnc2c1ncn2[C@@H]1O[C@H](CSCC[C@H](N)C(=O)O)[C@@H](O)[C@H]1O this time
10.1 µM

###

Biological target: tRNA (guanine-N(1)-)-methyltransferase (Pseudomonas aeruginosa (strain ATCC 15692 / DSM 22644 / CIP 104116 / JCM14847 / LMG 12228 / 1C / PRS 101 / PAO1), UniProt Q9HXQ1)
Sequence (Q9HXQ1 whole entry): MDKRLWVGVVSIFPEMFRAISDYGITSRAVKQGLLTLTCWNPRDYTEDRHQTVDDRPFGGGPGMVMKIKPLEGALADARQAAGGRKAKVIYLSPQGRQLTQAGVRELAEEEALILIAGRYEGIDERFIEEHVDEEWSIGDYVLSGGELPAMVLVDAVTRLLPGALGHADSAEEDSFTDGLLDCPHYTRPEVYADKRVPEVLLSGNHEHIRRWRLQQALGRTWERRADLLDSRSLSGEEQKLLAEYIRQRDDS
Test: Binding affinity to Pseudomonas aeruginosa tRNA (guanine(37)-N1)-methyltransferase (Leu5 to Asp25 residues) expressed in Escherichia coli BL21 (DE3) Rosetta T1R cells by surface plasmon resonance assay
Property Label: pKd
// pKd here means minus log10 of the molar concentration (mol/L)

GET /values?readout=pKd&item= Nc1ncnc2c1ncn2[C@@H]1O[C@H](CSCC[C@H](N)C(=O)O)[C@@H](O)[C@H]1O
5.23

Thanks! And CCCCCCCCNCc1ccc(CNC(=O)c2csc3nc[nH]c(=O)c23)cc1 ?
8.80

What do we get for NC1CCN(Cc2ccc(CNC(=O)c3csc4nc[nH]c(=O)c34)cc2)CC1 ?
7.04

###

System: Enterococcus faecalis
Assay: Antibacterial activity against Enterococcus faecalis ATCC 51299 at 100 uM incubated for 24 hrs
Type: functional, organism-based
Activity calls are given as the source filed them. No cut-off for these calls is given here.
Property Label: Activity

Recorded Activity, per entry:
Cl.NCCCCCCCNCc1ccc(CNC(=O)c2csc3nc[nH]c(=O)c23)cc1 :: inactive
O=C(NCc1ccc(CNCCOCCO)cc1)c1csc2nc[nH]c(=O)c12 :: inactive
CCCCCCCCNCc1ccc(CNC(=O)c2csc3nc[nH]c(=O)c23)cc1 :: Active
CCCCCCCCCCCCNCc1ccc(CNC(=O)c2csc3nc[nH]c(=O)c23)cc1 :: Active
CCOCCOCCNCc1ccc(CNC(=O)c2csc3nc[nH]c(=O)c23)cc1 :: inactive

Query compound follows.
Would you mind telling me what Activity value was observed for O=C(NCc1ccc(CNC(=O)c2cc(=O)c(O)cn2O)cc1)c1csc2nc[nH]c(=O)c12 ?
inactive
